system: M. tuberculosis H37Rv growth inhibition with meropenem; assay: dose response, H37Rv, with and without meropenem (AID 434987);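 also: growth over 7 days at 37 °C before Alamar Blue read on day 9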; details: M. tuberculosis H37Rv growth inhibition; measured here: IC50 without meropenem
pIC50: −log10 of the molar value.
RESULT TYPE: pIC50

Solved cases below.
{"columns": ["COMPOUND", "pIC50"],
 "data": [
  ["COc1ccc([N+](=O)[O-])cc1NC(=O)c1ccc(Br)s1", "< 4.00"],
  ["O=C1OC(/C=C/c2ccc(Cl)cc2Cl)=NC/1=C\\c1cccs1", 4.83]
]}

stdin: Supply pIC50 value. Item: CCC(=O)NC(=S)Nc1ccc(NC(=O)c2ccc(C)c([N+](=O)[O-])c2)cc1
stdout: < 4.00

stdin: Report measured pIC50; entry is CCNCC(O)c1cccc(O)c1 (configuration not stated)
stdout: < 4.00

stdin: Supply recorded pIC50 for C#CCOc1c(Cl)cc(/C=N/NC(N)=S)cc1OCC here.
stdout: < 4.00

stdin: Input Cc1cc(C)c2c(N)c(S(=O)c3ccc(C(C)(C)C)cc3)sc2n1 (configuration not stated) , output reported pIC50.
stdout: < 4.00

stdin: Supply reported pIC50 belonging to this compound: Cc1cccc(NC(=S)NC2CC3C=CC2C3)c1 (configuration not stated)
stdout: 4.62

stdin: Given Cc1ccc(C2=NN(C(=O)CN3C(=O)c4ccccc4S3(=O)=O)C(c3ccco3)C2)cc1 (configuration not stated) , respond with its pIC50.
stdout: < 4.00
